Could you please report measured Ki for the items listed next?
system tested: 5-HT2B receptor (Homo sapiens, UniProt P41595)
Sequence (P41595 whole entry): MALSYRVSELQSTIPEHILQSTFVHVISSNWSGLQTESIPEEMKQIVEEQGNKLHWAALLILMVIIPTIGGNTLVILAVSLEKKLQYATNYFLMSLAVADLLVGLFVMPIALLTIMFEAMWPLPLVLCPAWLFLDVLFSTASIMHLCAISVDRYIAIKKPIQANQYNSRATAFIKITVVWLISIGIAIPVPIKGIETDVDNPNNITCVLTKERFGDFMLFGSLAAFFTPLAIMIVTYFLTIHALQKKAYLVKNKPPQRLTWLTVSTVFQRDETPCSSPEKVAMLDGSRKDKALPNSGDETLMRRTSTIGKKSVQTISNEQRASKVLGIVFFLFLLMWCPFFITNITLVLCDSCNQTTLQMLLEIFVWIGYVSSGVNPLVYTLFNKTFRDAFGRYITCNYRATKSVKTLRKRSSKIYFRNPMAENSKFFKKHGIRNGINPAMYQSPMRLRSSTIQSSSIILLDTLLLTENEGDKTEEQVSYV
assay name: 5-HT2B receptor binding test
Parameters: expressed in transfected cells; host or cells: HEK293-EBNA cells (membrane sample)
settings: [3H] Mesulergine, human 5-HT2B receptor expressing HEK293-EBNA cell membrane
# value in nM; strip the unit string

Lookup: Ki / 5-HT2B receptor (Homo sapiens, UniProt P41595) / COC1(C)c2cc(C(=O)N=C(N)N)ccc2-c2sccc21 (stereo not drawn)
1.5

Lookup: Ki / 5-HT2B receptor (Homo sapiens, UniProt P41595) / NC(N)=NC(=O)c1ccc2c(c1)C1(CCCO1)c1ccsc1-2 (stereo not drawn)
1.3

Lookup: Ki / 5-HT2B receptor (Homo sapiens, UniProt P41595) / `CC(C)N1c2ccccc2Oc2ccc(C(=O)N=C(N)N)cc21`
0.26
